# ASSAY: yeast display, Sf9 membrane polyspecificity reagent, FACS + sequencing; frameworks hold sequencing errors
PROPERTY_MEASURED: polyreactivity (PSR sort gate)

The measured polyreactivity (PSR sort gate) associated with `QVQLVESGGGLVQAGGSLRLSCAASGSTFSWNTMGWYRQAPGKERELVAAISRRGGSTYYADSVKGRFTISRDNAKNTVYLQMNSLKPEDTAVYYCNAKYYYGHRPATAGRYYYWGQGTQVTVSS` reads high polyreactivity

Recorded polyreactivity (PSR sort gate) (sequence `QVQLVESGGGLVQAGGTLRLSCAASGSTFYLYAMGWYRQAPGNERELVAAISSAGGSTYYADSVKGRFTISRVNAKNTVYLQMNSLKPEDTAVYYCTRDIRRRGNYWGQGTQVTVSS` ): high polyreactivity

* * *

# ASSAY: yeast display, Sf9 membrane polyspecificity reagent, FACS + sequencing; frameworks hold sequencing errors
PROPERTY_MEASURED: polyreactivity (PSR sort gate)

Solved cases (7 shown):
Entry under test: `QVQLVESGGGLVQAGGSLRLSCAASGSTFSRNAMGWYRQAPGKERELVAAISYRGGSTYYADSVKGRFTISRDNAKNTVYLQMNSLKPEDTAVYYCNADVGWRAPDYGGYDYWGQGTQVTVSS` . Its polyreactivity (PSR sort gate) was high polyreactivity

Note to self: polyreactivity (PSR sort gate) recorded for `QVQLVESGGGLVQAGGSLRLSCAASGFTFRWYAMGSYRQAPGKERELVAAISSSGGSTYYADSVKGRFTISRDNAKNTVYLQMNSLKPEDTAVYYCAAASLRPYQRAYGYEYWGQGTQVTVSS` was high polyreactivity

Noted for `QVQLVESGGGLVQAGGSLRLSCAASGIIFGQNAMGWSRQSPGKESEVVAAITISGGSTYYADSVKGRFTISRDNAKNTVYLQMNSLKPEDTAVYYCAARRVTWKVIARGYRYGYWGQGTQVTVSS` : its polyreactivity (PSR sort gate) reads low polyreactivity

Record `QVQLVESGGGLVQAGGRLRLSCAASGFTIRLYTMGWYRQAPGKERELVAAITYSGDSTYYADSVKGRFTISRDNAKNTVYLQMNSLKPVDTAVYYCAARKYYARYYWGQGTQVTVSS` . Reported polyreactivity (PSR sort gate): high polyreactivity

// field: polyreactivity (PSR sort gate); key: `QVQLVESGGGLVQAGRSLRLSCAASVFTFYHYAMGWYRQAPGKVRELVAAISNSGVSTYYADSVKGRFTISRDNAKITVYLQLNSLKPEDTAVYYCNAVYQSYHISGDDYWGQGTQVTVSS` ; value = high polyreactivity

Entry `QVQLVESGGGLVQAGGSLRLSCAASGSTFTPYAMGWYRQAPGKERELVAAISRRGGSTSYADSVKGRFTISRDNAKNTVYLQMNSLKPEDTAVYYCNKKTAASDYDYWGQGTQVTVSS` ; polyreactivity (PSR sort gate) = high polyreactivity

// `QVQLVESGGGLVQAGGSLRLSCAASGNTSPYSAMGWYRQAPGKEREWVAGISSGGTTNYADSVKGRFTISRDNAKNTVDLQMNSLKPVDTAVYYCAADEWYVECLGYFFAYDYWGQGTQVTVSS` : polyreactivity (PSR sort gate) value = low polyreactivity

Next sequence, please.
Consider `QVELQVSGGGLVRAGGSLRLSCAASGNIFDADIMGWYRQAPGKERELVASITGGGSTSYAESAKGRFTISRDNAKNAVYLQMKSLKPEDTAVYYCARDSWWYHHYDYWGQGTQVTVSS` . Its measured polyreactivity (PSR sort gate) is low polyreactivity

* * *

# ASSAY: yeast display, Sf9 membrane polyspecificity reagent, FACS + sequencing; frameworks hold sequencing errors
PROPERTY_MEASURED: polyreactivity (PSR sort gate)

Look over these answered cases.
Kindly note the recorded polyreactivity (PSR sort gate) for `QVQLVESGGGLVQAGGSLRLSCAASGRIFQPNAMGWYRQATGNERELVAAISSSGGRTYYADSVKGRFTISRDNAKNTVYLQMNSLKPEDTAVYYCNAGGYRYRSYDYWGQGNQVTVSS` , which is high polyreactivity

polyreactivity (PSR sort gate) reading for `QVQLVESGGGLVQAGGSLRLSCAASGFTFYANAMGWYRQAPGKERELVAAIDESGTSTNYADSVKGRFTISRDNAKNTVYLQMNSQKPEDTAVYYCAADGNSTGVYLDGGEGFAYDYWGHGTQVTVSS` : low polyreactivity

Note to self: polyreactivity (PSR sort gate) recorded for `QVLLVESGGGLVQAGGSLRLSSAASGSIFVCNAMGWYRQAPGKERELVAAIRGVDSTYYGDSVKGRFTISRDNGKNTFFLQMNSLKPEDTAFYYCATLGPGFPRYYDWGQGTQVTVSS` was high polyreactivity

Kindly note the recorded polyreactivity (PSR sort gate) for `QVQLVESGGGLVQAGGSLRLSCAASGITFVTYAMGWYRQAPGKEREFVASINWITGNTYYADSVKGRFTISRDNAKNTVYLQMNSLKPEDTAVYYCATVDWSLYLGTPPSYYWGQGTQVTVSS` , which is low polyreactivity

More entries:
Record summary for `QVQLVESGGGLVQAGGSLRLSCAASGLTFEGYAMGWYRQAPGKERELVAAISSSSGRTYYADSVKGRFTISRDNAKNTVYLQMNSLKPEDTAVYYCAARPGSGRSYTSDYWGQGTQVTVSS` : reported polyreactivity (PSR sort gate) = high polyreactivity

polyreactivity (PSR sort gate) reading for `QVQLVESGGGLVQAGGSLRLSCAAYGFIFPGNAMGWYIQAPGKERELVAAISNSGSRTYYADSVKGRFTISRDNAKNTVYLQMNSLKPEDTAVYYCNADVHNRGWPYDYWGQGTQVTVSS` : low polyreactivity

* * *

# ASSAY: yeast display, Sf9 membrane polyspecificity reagent, FACS + sequencing; frameworks hold sequencing errors
PROPERTY_MEASURED: polyreactivity (PSR sort gate)

Record excerpt, results attached:
The recorded polyreactivity (PSR sort gate) for `QVQLVESGGGLVQAGGSLRLSCAASGRTFSVNDMGWYRQAPWKEREFVAAISFSGGSTYYADSVKGRFTISRDNAKNTVYLLMNSLKPEDSAVYYSAAEAYPSWFYVITGFGIYDYWGQGTQVTGSS` is high polyreactivity

Just so you know, measured polyreactivity (PSR sort gate) for `QVQLVESGGGLVQAGGSLRLSCAASGRIFQYYTIGWYRQATGKERELVAAIRSSGGITYYADSVKGRFTISRDNAKYTVYLQMNSLKPEDTAVYYCAARWYRSKYDYWGQGTQVTVSS` came out at high polyreactivity

Per the record, `QVQLVESGGVLLQAGGSLRLSCAASGTIQYIKTMGWYRQAPGKERELVAAITYSGGSTYYADSVKGRFTISRDNAKNTVYLQRNSLKPVVTAVYYCAGDGYYGGYNYWGQGTQVTVSS` has polyreactivity (PSR sort gate) of low polyreactivity

The measured polyreactivity (PSR sort gate) associated with `QVQLVESGGGLVQAGGSLRLSCAASGSTFFEYTMGWYRQAPGKEREFVADIRGRDGSTSYADSVKGRFTISRDNAKNTVYLQMNSLKPEDTAVYYCNADVTRWTRSPWPYTYDYWGQGTQVTVSS` reads low polyreactivity

Others:
Sample `QVQLVESGGGLVQAGGSLRLSCAASGFTFVAYAMGWYRQAPGKERELVAAISRRGGTTYYADSVKGRFTISRDNEKNTVYLQMNSLKPEDTAVYYCNARSNFAFYRGNWAYDYWGQGTQVTVSS` ; polyreactivity (PSR sort gate) observed: high polyreactivity

Item: `QVQLVESGGGLVQAGGSLRLSCAASGSTFLGNAMGWYRQAPGKERELVASIRWTTGSTYYADSVKGRFTISRDNAKNTVYLQMNSLKPEDTAVYYCAKGLYVQFDYWGLGTQVTVSS` | polyreactivity (PSR sort gate): low polyreactivity

The sequence listed as `QVQLVESGGGLVQAGGSLRLSCAASGSIFTFYAMGWYRQAPGKERELVATITWSGGSTFYADSVKGRFTISRDNAKNTVYLQMNSLKPEDTAVYYCAAYRVDYSDAYYYWGQGTQVTVSS` shows polyreactivity (PSR sort gate) equal to low polyreactivity

Just so you know, measured polyreactivity (PSR sort gate) for `QVQLVESGGGLVQAGGSLRLSCAASGFIFSGYAMGWYRQAPGKERELVASISWSGARTNYADSVKGRFTISRDNAKNTVYLQMNSLKPEDTAVYYCAAQVGRGYEVYPVYKYGYWGQGTQVTVSS` came out at high polyreactivity

* * *

# ASSAY: yeast display, Sf9 membrane polyspecificity reagent, FACS + sequencing; frameworks hold sequencing errors
PROPERTY_MEASURED: polyreactivity (PSR sort gate)

Example entries begin here.
Kindly note the recorded polyreactivity (PSR sort gate) for `QVQLVESGGGLVQAGGSLRLSCAASGSIFWVYTMGWYREAPGKERELVAASRSRGGSTYYADSVKGRFTISRDKAKNTVYLQMNSLKPEDTAVYYGNADYYYEVDSWGQGTQVTVSS` , which is low polyreactivity

Entry `QVQLVESGVGLVQAGGSLRLSCAASGRTFRPYALGWYRQAPGNERELVAAIDSGGSTYADSVKGRFTISRDNAKTTVYLQMNSLKPEDTAVYYSAAVTQTAWLWYGYWGQGTQVTVSS` — recorded polyreactivity (PSR sort gate) = low polyreactivity

// `QVQLVESVGGLVQAGGSLRLSCAASGSIFSVNAMGWYRQAPGKERELVASINFRGGRTYYADSVKGRFTISRDNAKNTVYLQMNSLKPEDTAVYYCAAVITQTDTGYGPSFRVYYWGQGTQVTVSS` : polyreactivity (PSR sort gate) value = high polyreactivity

Consider `QVQLVESGGGLVQAGGSLRLSCAASGSILHPNGMGWYRQAPGKERELVAAITINGDSTYYADSVKGRFTISRDNAKNTVYLQMNSLKPEDTAVYYFAVDGWPTGWYYYWGQGTQVTVSS` . Its measured polyreactivity (PSR sort gate) is low polyreactivity

Note to self: polyreactivity (PSR sort gate) recorded for `QVQLVESGGGLVQAGGSLRLICAASGRTFYGYAMGWYRQAPGKERELVAAISTGGGRTYYADSVKGRFTISRDNAKNTVYLQMNSLKPEDTAVYYCAARRAYPHYRVDYWGPGTQVTVSS` was high polyreactivity

Lab book: polyreactivity (PSR sort gate) of `QVQLVESGGGLVQAGGSLRLSCAASGFILYFNAMGWYRQAPGKDRELVAVISCTGVRTNYADSVKGRFTISRDNAKNTVYLQMNSLKPEDTAVYYCAAGYYSYRPRDYWGQGTQVTVSS` noted as low polyreactivity

Note to self: polyreactivity (PSR sort gate) recorded for `QVQLVESGGGLVQAGGSLRLSCAASGSIFKAYAMGWYSQAPGKERELVAAITWSGGSTYYADSVKGRFTISRDNAKYTVYLQMNSLKPEDTAVYYCAADRLEGYYEDDATGFDYWGQGTQVTVSS` was low polyreactivity

GET /value?item= `QVQLVESGGGLVQAGGSLRLSCAASGSIFLYYTMGWYRQEPGKERELVAAITWSGSSTYYADSVKGRFTISRDNAKNTVYLQMNSLKPEDTAVYYCATRYRYRYWGQGTQVTVSS` &field=polyreactivity (PSR sort gate) returns high polyreactivity

Next:
Briefly, polyreactivity (PSR sort gate) measured for `QVQLVESGGGLVQAGGSLRLSCAASGSIFVYYAMGWYRQAPGKERELVAAISSTGGRTYYADSVKGRFTISRDNAKNTVYLQMNSLKPEDTAVYYCNAARTGYRYYDWFYDYDYWGQGTQVTVSS` : low polyreactivity

Looking up `QVQLVESGGGLVQAGGSLRLSCAASGSTFRVYAMGWYRQAPGKERELVAAISGSGGSTYYADSVKGRFTISRDNAKNTVYLQMNSLKPEDTAVYYCAGRSWYTEYYWGQGTQVTVSS` , I found its polyreactivity (PSR sort gate) recorded as high polyreactivity
